Origin of the recorded values: PubChem BioAssay (NCI)

Tested on: 786-0 renal
Assay: NCI-60 one-dose screen, 48 h (100 = growth as untreated, 0 = no growth, -100 = all killed)
Settings: 10 µM unless noted
This is part of a sample that, as a whole, favours compounds with a hit. Of some 83,000 tested, about 20% had one in any assay. Activity calls are given as the source filed them. The calls were made as follows: active = growth percent below 10; inactive = the rest.
Exercise: state measured growth for each of the molecules provided.

[ask] Quote growth reported for `C=CCc1c(O)c(C(=O)/C=C/c2ccccc2)c(OC)c2ccoc12` please.
[reply] 71.3% (inactive)

[ask] Quote growth reported for `CCOC(=O)C/C(=N\Nc1cc(=O)[nH]c2ccc(Br)cc12)C(=O)OCC` please.
[reply] 106% (inactive)

[ask] Quote growth reported for `COc1ccc2c(c1)c(-c1nc(-c3c[nH]c4ccncc34)cs1)cn2C` please.
[reply] -91.6% (active)

[ask] Quote growth reported for `CCCOC(=O)Nc1nc2ccc(SCC(C)C)cc2s1` please.
[reply] 40.4% (inactive)

[ask] Quote growth reported for `O=C1/C=C/[C@@H](O)[C@@H]2C[C@@H](O)C[C@H]2/C=C/CCC[C@H](CCc2ccccc2)O1` please.
[reply] -54.7% (active)

[ask] Quote growth reported for `COc1ccc(Nc2nc(-c3cc(O)c(C)c(C)c3O)cs2)cc1` please.
[reply] 102% (inactive)

[ask] Quote growth reported for `O=C1C(Cl)=C(Nc2ccc(S(=O)(=O)N3CCOCC3)cc2)C(=O)c2ccccc21` please.
[reply] 71% (inactive)

[ask] Quote growth reported for `CC1(C)COB(OCC(C)(C)COB2OCC(C)(C)CO2)OC1` please.
[reply] 104% (inactive)

[ask] Quote growth reported for `Cc1ccccc1/C=C/C(=O)c1cccc(OCCCOc2cccc(C(=O)/C=C/c3ccccc3C)c2)c1` please.
[reply] 103% [3 µM] (inactive)

[ask] Quote growth reported for `S=c1sc2c(Cl)nc(-c3cccnc3)nc2n1-c1ccccc1` please.
[reply] 35.4% (inactive)

###

Test system: KM12 colon
Experiment: NCI-60 one-dose screen, 48 h
Settings: 10 µM unless noted
This is part of a sample that, as a whole, favours compounds with a hit. Of some 83,000 tested, about 20% had one in any assay. Active and inactive are the calls of the source. Rule for the calls: active = growth percent below 10; inactive = the rest.
Answer with one of the outcomes t (active), f (inactive)

[ask] # fetch the recorded call for `Cn1c(=O)c2nc(/C=C/c3ccccc3)c(=O)[nH]c2n(C)c1=S` here
[reply] f

[ask] # fetch the recorded call for `CC/C=C\C[C@H](O)C/C=C1/C(=O)C=C[C@@H]1C/C=C\CCCC(=O)N(C)C` here
[reply] t

[ask] # fetch the recorded call for `CC(=O)Oc1ccc(/C(=C(\C)c2ccc(Cl)cc2)c2ccc(OCCN3CCCCC3)cc2)cc1` here
[reply] f

[ask] # fetch the recorded call for `O=C(COc1ccc(-c2nc3cc(Cl)c(Cl)cc3[nH]2)cc1)N=Nc1c(O)[nH]c2ccc(Cl)cc12` here
[reply] f

[ask] # fetch the recorded call for `CCCc1c(OC(=O)c2ccccc2)nc2[nH]c(=O)sc2c1C` here
[reply] f

[ask] # fetch the recorded call for `Cc1cc(C(=O)O)c(C)n1-c1cccc(C(=O)O)c1` here
[reply] f

[ask] # fetch the recorded call for `OCCn1cc(-c2nc(-c3c[nH]c4ncccc34)cs2)c2ccccc21` here
[reply] f

[ask] # fetch the recorded call for `Nc1n[nH]c2cccc(C#Cc3cccc(NC(=O)c4cc(F)cc(C(F)(F)F)c4)c3)c12` here
[reply] f

[ask] # fetch the recorded call for `O=C(Nc1ccc(Oc2cccc(Cl)c2)c(Cl)c1)c1cnccn1` here
[reply] f

[ask] # fetch the recorded call for `CCN(C)S(=O)(=O)Nc1cccc(Nc2ncnc3cc(NC(=O)CCl)ccc23)c1Cl` here
[reply] t
